test: Solid state (thermolytic) stability of TBR-760 salt forms, open container, UPLC peak purity and appearance; type: physicochemical; settings: 25° C. at 60% RH, open container, 3 d
Counter-ions that a name gives are not always drawn.
propertyName: Appearance, T = 3 d

# compound, result
measured = [
    ("CCCN1C[C@H](CSCC(=O)NCCCC[C@@H](NC(=O)CSC[C@@H]2C[C@@H]3c4cccc5[nH]cc(c45)C[C@H]3N(CCC)C2)C(=O)N[C@H]2CSSC[C@@H](C(=O)N[C@H](C(N)=O)[C@@H](C)O)NC(=O)[C@H](CC)NC(=O)[C@H](CCCCN)NC(=O)[C@@H](Cc3c[nH]c4ccccc34)NC(=O)[C@H](Cc3ccc(O)cc3)NC2=O)C[C@@H]2c3cccc4[nH]cc(c34)C[C@H]21 [TBR-760 tosylate]", "White"),
]
